Test system: SK-MEL-2 melanoma
Experiment: NCI-60 one-dose screen, 48 h
Conditions: 10 µM unless noted
The panel holds about 83,000 compounds, 20% with a hit somewhere; the sample as a whole holds those more often. The source made the active and inactive calls. How the source made its calls: active means growth percent below 10; inactive means the rest.
API: response.call in active, inactive

The examples below pair each entry with its known result.
[[record]]
molecule = "CC(C)(C)OC[C@@H]1N=C(c2ccc(Br)cc2)Nc2nc3ccccn3c2C1=O"
class = "inactive"

[[record]]
molecule = "COC(=O)[C@H](Cc1cn(C)cn1)NC(=O)[C@H](CC(C)C)NC(=O)Nc1cc(C(F)(F)F)cc(C(F)(F)F)c1"
class = "active"

[[record]]
molecule = "CCCCCCCCCCCC1=NC(C)(C)CN1C(C)C"
class = "inactive"

[[record]]
molecule = "COc1cc2ncnc(Nc3ccc(S(=O)(=O)Nc4cc(C)on4)cc3)c2cc1OCCCN1CCN(c2ccc([N+](=O)[O-])cc2)CC1"
class = "inactive"

[[record]]
molecule = "CCCCCCCCCCCC1=NC(C)(C)CN1CC(C)O (stereo not drawn)"
class = "inactive"

[[record]]
molecule = "Clc1ccc(-c2cnc3nonc3n2)s1"
class = "inactive"

[[record]]
molecule = "C=CCN(CC#N)CC=C"
class = "inactive"


What is the recorded call for this molecule in the test? `CNCCCn1c2c(c3ccc(Cl)cc3c1=O)C(=O)c1cc(OC)cnc1-2`
inactive

* * *

Tested on: T-47D breast
Assay: NCI-60 one-dose screen, 48 h (100 = growth as untreated, 0 = no growth, -100 = all killed)
Conditions: 10 µM unless noted
The panel holds about 83,000 compounds, 20% with a hit somewhere; the sample as a whole holds those more often.
Short version: growth at least 30% is met, less is not met.

Below, 5 compounds whose answers are already recorded.
[[record]]
compound = "O=C1Nc2ccc(Br)cc2/C1=N/c1nc(-c2ccccc2)cs1"
class = "met"

[[record]]
compound = "C=CCOc1ccc2c(C)cc(=O)oc2c1"
class = "met"

[[record]]
compound = "COc1cc(C)c(Cl)cc1C1=NN(c2ccc(S(N)(=O)=O)cc2)C(/C=C/c2ccccc2)C1 (centres undefined)"
class = "not met"

[[record]]
compound = "CCC1N=C(N)N=C(N)N1c1ccc(Cl)cc1 (centres undefined)"
class = "met"

[[record]]
compound = "CCOC(=O)C(Cc1ccccc1)n1c(O)c(/C=N/c2ncc(Cc3ccc(Cl)cc3Cl)s2)sc1=S (centres undefined)"
class = "not met"


Say whether `CC(=O)O[C@H]1CC[C@]2(C)[C@H]3CC=C4[C@@H]5CC(C)(C)CC[C@]5(C(=O)OCC(COC(=O)C(Cl)Cl)(COC(=O)C(Cl)Cl)NC(=O)C(Cl)Cl)CC[C@@]4(C)[C@]3(C)CC[C@H]2C1(C)C` shows growth of 30% or more.
met

Say whether `COc1ccc(/C(C)=N/NC(=O)c2ccc(S(C)(=O)=O)cc2)cc1OC` shows growth of 30% or more.
met

Confirm if growth reported for the compound `COc1ccc2[nH]cc(C3(c4c[nH]c5ccc(OC)cc45)C(=O)Nc4ccc(Cl)cc43)c2c1` is 30% or above.
met

Reported growth at or above 30%? CN1C(=O)N(C)C2C1NN=c1s/c(=C\c3ccc(Br)cc3)c(=O)n12 (centres undefined)
not met

* * *

Tested on: HOP-62 NSCLC
Assay: NCI-60 one-dose screen, 48 h
Settings: 10 µM unless noted
This is part of a sample that, as a whole, favours compounds with a hit. Of some 83,000 tested, about 20% had one in any assay. Calls of active or inactive are those of the source. Rule for the calls: active = growth percent below 10; inactive = the rest.
// allowed return values: Yes (active), No (inactive)

Worked examples, 5 compounds total:
[[record]]
compound = "CCOC(=O)c1ccc2c(c1)[n+](=O)c(C(=O)c1ccc3ccccc3c1)c(C(F)(F)F)n2[O-]"
class = "Yes"

[[record]]
compound = "COc1cccc(C2C(C#N)=C(N)Oc3cc4c(cc32)OCO4)c1 (centres undefined)"
class = "No"

[[record]]
compound = "CC(C)(C)OC(=O)N1CCCN(CCNc2nccc(-c3c(-c4cccc(O)c4)nc4sccn34)n2)S1(=O)=O"
class = "No"

[[record]]
compound = "CC(C)[C@@]12C[C@@H](OC(=O)[C@H]3CO3)[C@@](C)(O1)[C@@H]1CC[C@@H](C)[C@H]1[C@@H]2OC(=O)/C=C/c1ccccc1"
class = "No"

[[record]]
compound = "CCN1C(=O)/C(=C/N2N=C(c3ccc(Cl)cc3)CC2c2ccc(OC)cc2)SC1=S (centres undefined)"
class = "No"


Look up the recorded call for `CCN1CCN(Cc2ccc(NC(=O)Nc3ccc(-n4ccc5c(NC(=O)c6ccccc6)nccc54)cc3)cc2C(F)(F)F)CC1` in this test.
Yes

Check the results log: what was the call for `CCCCCCCCN(CCCCCCCC)C(=O)CCl` ?
No

Answer briefly: the call reported for CC(C)CC1NC(=O)C(CC(C)C)N(CO)C1=O (centres undefined) in this assay.
No

Hi, do you know how `COc1ccc(-c2conc2-n2nc(-c3ccccc3)nc2-c2ccccc2)cc1` came out in this test?
No

Please state the recorded outcome for this compound: `CC(C)(C)c1ccc(OC(=O)Nc2ccccc2)cc1`
No

Record request — test call for `NS(=O)(=O)c1ccc(CCn2c(SCC(=O)N/N=C/c3ccccc3O)nc3ccccc3c2=O)cc1`
No

Which result was noted for this compound in the test: `Fc1cc(-c2cnc3nonc3n2)c(Cl)cc1Cl`
No

Which outcome was assigned to `Cc1cc(O)ccc1Sc1ccccc1[N+](=O)[O-]` in this test?
No

Which outcome did this test record for the compound `COc1cc(/C=C/c2cc(/C=C/c3ccc(O)c(OC)c3)n(C(=O)c3ccccc3Br)n2)ccc1O` ?
No

Kindly provide the recorded test outcome for the following compound: `COC1(OC)C2(Cl)CCC1(Cl)C(Cl)=C2Cl`
No

Give the logged outcome of this assay for the following compound: `CN1CCC2(CC1)N=C(SCC(=O)Nc1cnc3ccccc3c1)C(c1ccc(Br)cc1)=N2`
No

* * *

growth for assorted compounds
Tested on: IGROV1 ovarian
Assay: NCI-60 one-dose screen, 48 h (100 = growth as untreated, 0 = no growth, -100 = all killed)
Conditions: 10 µM unless noted
About 83,000 compounds went through this panel and 20% of them were active in at least one assay; those are over-represented in the sample as a whole.
I only need the number, in %, no unit after it.

Look over these answered cases.
[[record]]
chemical_smiles = "COc1ccc(-c2conc2-n2nc(-c3ccccc3)nc2-c2ccccc2)cc1"
numeric_readout = 101

[[record]]
chemical_smiles = "NS(=O)(=O)c1ccc(CCn2c(SCC(=O)N/N=C/c3ccccc3O)nc3ccccc3c2=O)cc1"
numeric_readout = 64.4

[[record]]
chemical_smiles = "N/N=C(\\C(=N\\N)c1ccccc1)c1ccccc1"
numeric_readout = 96.8


Look up growth for this compound: `NC(N)=N/N=C/c1ccc(Cl)cc1`
97.6

Reported growth, compound `Cc1c(C(N)=O)sc2ncn(CC(=O)NN=C3CCCCC3)c(=O)c12` : ____
135

Tell me the measured growth of `O=C(O)CSc1ccc(NCc2oc(CO)cc(=O)c2O)cc1` , please.
105

Which growth reading was recorded for the compound `CCCCCCCCCCCCNC(=O)N[C@H](C(=O)N[C@H]1/C=C/CCNC(=O)/C=C/[C@H](C)NC1=O)C(C)C` ?
-32.9

So what's the measured growth for this one? `COc1cc(-c2nc(-c3ccc(-c4nc5ccc(F)cc5[nH]4)cc3)no2)cc(OC)c1OC`
47.3

What does the data say about its growth? Entry: `CSc1nc(N)c2[nH]c(-c3cc4ccccc4[nH]c3=O)nc2n1`
61.5

Can you look up the measured growth of `CCOc1cc(/C=N\NC(=O)C[N+](C)(C)C)ccc1O` for me?
118

* * *

Tested on: SW-620 colon
Experiment: NCI-60 one-dose screen, 48 h
Conditions: 10 µM unless noted
Compounds without any hit were thinned out: in the full panel of roughly 83,000, 20% have a hit. Calls of active or inactive are those of the source. The calls were made as follows: active = growth percent below 10; inactive = the rest.
Give one outcome, nothing more. List: 1 (yes) for active, 0 (no) for inactive

Examples with answers:
[[record]]
compound = "COc1cc(NCC(O)CN(CC(C)C)CC(C)C)c2ncccc2c1 (centres undefined)"
tested_on = "SW-620 colon"
class = "0 (no)"

[[record]]
compound = "N=c1nc(N2CCCCC2)cc(N)n1O"
tested_on = "SW-620 colon"
class = "0 (no)"

[[record]]
compound = "CN(C)CCCn1c(=O)c2cc([N+](=O)[O-])ccc2c2cnc3[nH]ccc3c21"
tested_on = "SW-620 colon"
class = "0 (no)"


Record lookup: outcome of this test for `COC(=O)[C@@H](Cc1c[nH]c2ccccc12)NC(=O)/C=C/c1ccccc1` ?
0 (no)

I would be grateful if you could indicate the recorded call for `O=C(Nc1ccccc1)c1cc2ccccc2s1` .
0 (no)

How did this test come out for `COc1ccc(/C(C)=N/NC(=O)CSc2nc3ccccc3c(=O)n2CCc2ccc(S(N)(=O)=O)cc2)cc1` ?
0 (no)

What did this assay record as the result for `COc1ccc2nc(C)cc(Sc3nc4ccccc4s3)c2c1` ?
0 (no)

In this assay, the call recorded for COc1cc2c(c(OC)c1O)C(=O)C(OC)C(c1ccc(O)c(O)c1)O2 (centres undefined) was what?
0 (no)

Status in this test for `CCCCCCCCN(CCCCCCCC)C(=O)CCl` ?
0 (no)

Tell me the assay call for CC(=O)C1CCC2C3CC(C)=C4CC(O)CCC4(C)C3CCC12C (centres undefined) please.
0 (no)

Could you please tell me the result logged for `COc1ccccc1CNCCCN1C(=O)c2ccc3c4c(ccc(c24)C1=O)C(=O)N(CCCOCCCCOCCCN)C3=O` in this assay?
1 (yes)

What did this assay record as the result for CC1OC(n2c3ccccc3c3c4c(c5c6ccccc6[nH]c5c32)C(=O)N(CCN2CCOCC2)C4=O)CC(O)C1O (centres undefined) ?
0 (no)

Each compound tested received a call. Report the one for CC(CN1CCN(CC(C)Nc2ccnc3cc(Cl)ccc23)CC1)Nc1ccnc2cc(Cl)ccc12 (centres undefined) .
1 (yes)

Kindly provide the recorded test outcome for the following compound: `Cc1ccccc1NC(=O)c1sc2nc3c(cc2c1N)C(=O)CCC3`
0 (no)

Hi, sorry to bother you, what did the test record for `O=C1/C(=C/c2cc(F)cc(F)c2)Cc2cc(F)cc(F)c21` ?
0 (no)

Which result was noted for this compound in the test: `C[C@H](NC(=O)c1snnc1C1CC1)c1c(F)cccc1Cl`
0 (no)

For this compound, state the assay outcome: `Clc1nnc2c3ccccc3ccn12`
0 (no)

Which outcome was assigned to `COc1ccc(-c2cnnn2-c2nonc2-n2cccc2)cc1` in this test?
0 (no)

Status in this test for CCN1C(=O)N(CC)C2C1NN=c1s/c(=C\c3ccc(Br)cc3)c(=O)n12 (centres undefined) ?
0 (no)

// provenance: PubChem BioAssay (NCI)
